The values you see were collected from patent US9085576B2.

# assay target: BACE (Homo sapiens (Human))
# Sequence (P56817 46-501, species assumed): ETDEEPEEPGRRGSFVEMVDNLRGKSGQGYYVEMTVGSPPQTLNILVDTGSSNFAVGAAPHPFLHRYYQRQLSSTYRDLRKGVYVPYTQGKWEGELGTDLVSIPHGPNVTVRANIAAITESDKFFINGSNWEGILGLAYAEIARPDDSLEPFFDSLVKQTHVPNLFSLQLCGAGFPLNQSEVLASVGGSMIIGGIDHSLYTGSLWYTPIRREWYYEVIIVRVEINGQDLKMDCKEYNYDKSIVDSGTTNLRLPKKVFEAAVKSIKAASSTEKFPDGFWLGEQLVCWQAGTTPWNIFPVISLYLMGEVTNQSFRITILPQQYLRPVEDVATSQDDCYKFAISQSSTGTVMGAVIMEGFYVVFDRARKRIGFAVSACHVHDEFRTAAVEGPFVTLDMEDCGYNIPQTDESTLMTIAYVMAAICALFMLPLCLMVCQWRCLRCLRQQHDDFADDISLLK
# experiment summary: In vitro BACE cell-based assay (Aβ40 in conditioned medium, sandwich ELISA)
Consider the following compounds; for each one, report its IC50.
Answers are plain numbers, in µM.

Take a look at these entries with their results.
compound=N#Cc1ccc(C(=O)Nc2ccc(Cl)c([C@]3(CF)N=C(N)O[C@H]4C[C@H]43)c2)nc1 assay_target="BACE (Homo sapiens (Human))" reported_measurement=2.64
compound=NC1=N[C@@](c2cc(Nc3nccc4cc(C#CC5CC5)cnc34)ccc2F)(C(F)F)[C@H]2C[C@H]2O1 assay_target="BACE (Homo sapiens (Human))" reported_measurement=0.861

Identify IC50 associated with the compound Cc1cc(C#N)cnc1C(=O)Nc1cc(F)c(F)c([C@@]2(CF)N=C(N)O[C@@H]3C[C@@H]32)c1 [Example 49]
0.0082
